- TEST SUMMARY: HPLC kinetics of decomposition
- Assay type: physicochemical
- MEASUREMENT SETUP: 40% acetonitrile in PBS; 60% PBS (40% acetonitrile), 37° C.
PARAMETER: half-life (min)
Give bare numbers, in min.

>>> df
                                   compound  endpoint_value
0  O=C(C(=O)N1C(=O)c2ccccc2S1(=O)=O)N1C(=O)c2ccccc2S1(=O)=O [Compound 5]            1.28

Query :: Bench note: what half-life did CC1=CC(=O)N(C(=O)C(=O)N2C(=O)C=C(C)OS2(=O)=O)S(=O)(=O)O1 [Compound 7] show?
Result :: 9.5

---

Give measured CO Release Yield (%) for each item. Keep answers brief.
- TEST SUMMARY: NMR CO release experiments for formyl compounds
- Assay type: physicochemical
- MEASUREMENT SETUP: deuterated PBS or 20% DMSO-d6 in deuterated PBS; determined indirectly from ratio of formic acid formed
One number for each entry, in %.

In [3]: df
Out[3]:
               structure_smiles             parameter  endpoint_value
0  C[N+](C)=c1ccn(C=O)cc1.[Br-]  CO Release Yield (%)              34
1             Cc1nn(C=O)c(=S)s1  CO Release Yield (%)              33
2                 O=Cn1ccccc1=O  CO Release Yield (%)              20

Query :: Suppose we examine the molecule `O=CN1C(=O)c2ccccc2S1(=O)=O` ; what CO Release Yield (%) value has been reported?
Result :: 20

---

- TEST SUMMARY: Quantitative CO analysis by GC with thermal conductivity detector
- Format: physicochemical
- MEASUREMENT SETUP: 4 to 1 acetonitrile: water, 37° C., 1 h (FIG. 10)
PARAMETER: CO release yield

>>> print(df.to_string())
                                   compound         parameter  endpoint_value
0  O=C(C(=O)N1C(=O)c2ccccc2S1(=O)=O)N1C(=O)c2ccccc2S1(=O)=O [Compound 5]  CO release yield           76%±6

Query :: Which value of CO release yield has been reported for CC1=CC(=O)N(C(=O)C(=O)N2C(=O)C=C(C)OS2(=O)=O)S(=O)(=O)O1 [Compound 7] in the records?
Result :: 92%±3
